molecular target: T1, human glucagon receptor (human, UniProt P47871 26-477); assay: SPA displacement of [125I]-glucagon from human glucagon receptor BHK membranes
T1 construct: whole, on cells; reporter assay on whole cells
T1 sequence (P47871 26-477): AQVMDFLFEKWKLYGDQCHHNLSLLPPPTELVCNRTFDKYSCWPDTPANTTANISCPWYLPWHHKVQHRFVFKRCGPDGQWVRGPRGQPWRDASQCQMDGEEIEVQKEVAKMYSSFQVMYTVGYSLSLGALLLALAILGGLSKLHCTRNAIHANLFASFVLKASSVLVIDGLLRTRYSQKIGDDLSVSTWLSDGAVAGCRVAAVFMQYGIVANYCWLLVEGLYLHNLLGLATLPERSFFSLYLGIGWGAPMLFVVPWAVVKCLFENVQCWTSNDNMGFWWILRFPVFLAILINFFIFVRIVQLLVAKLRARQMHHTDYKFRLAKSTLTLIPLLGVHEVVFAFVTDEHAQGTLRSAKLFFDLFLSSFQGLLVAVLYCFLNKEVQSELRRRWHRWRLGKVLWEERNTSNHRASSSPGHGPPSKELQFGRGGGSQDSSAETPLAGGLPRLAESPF
*1 amine or outer side, *2 acyl side, *3 side chain or, on linkers, in order; H or OH if unused. Side-chain parts run from the residue outwards. [ ]: non-standard residue; d: D form. The star is where a group is joined. C18 diacid = O=C(O)CCCCCCCCCCCCCCCCC(=O)*; γGlu = O=C(O)[C@H](CCC(=O)[*:2])N[*:1]; C14 diacid = O=C(O)CCCCCCCCCCCCC(=O)*; Desaminohistidyl = O=C(CCc1c[nH]cn1)*; Ac4c = NC1(C(=O)O)CCC1; Aib = CC(C)(N)C(=O)O
Field: IC50. Provide a value for each of the binders that follow.
Answers are plain numbers, in nM.

[Desaminohistidyl][Aib]HGTFTSDVSKYLEEQAAREFIAWLLK([Ado-Ado-γGlu-γGlu-C14 diacid])T-NH2
3.7

Now, please, on to the next binder.
Exam item: State its IC50: [Desaminohistidyl][Ac4c]HGTFTSDYSKYLEEQAAREFIAWLLKK([Gly-Ser-Glu-Gly-Ser-γGlu-γGlu-C18 diacid])-NH2
Marked response: 16
